- Test details: in vivo
- Measurement parameters: mouse, po, 10 mg/kg, Cmax
Readout type: Cmax (ng/mL)
The reply should contain only the number, in ng/mL.

Returns the measured Cmax for the input compound. Input: CCC(CC)O[C@@H]1C=C(C(=O)O)C[C@H](NC(=N)N)[C@H]1NC(C)=O [GOC, 4-guanidinio oseltamivir carboxylate]
43

---

- Tested on: Flu A Vietnam/1203/2004 (H5N1) × A/Ann Arbor/6/60 (H1N1 core genes)
- Test details: microbe, parasite or virus in culture
- Type: cell-based
- Measurement parameters: Influenza A virus, MDCK, read-out: 50% effective concentration (EC50)
Entries and their EC50 values follow.
Response body: numeric value in nM, unit text excluded.

# Compound, Target or test system, EC50 / nM
data = [
    ("CCC(CC)O[C@@H]1C=C(C(=O)O)C[C@H](N)[C@H]1NC(C)=O [Oseltamivir Carboxylate, Oseltamivir carboxylate]", "Flu A Vietnam/1203/2004 (H5N1) × A/Ann Arbor/6/60 (H1N1 core genes)", 2.8),
]

Read the next record carefully.
Please report the recorded EC50 for CCC(CC)O[C@@H]1C=C(C(=O)O)C[C@H](NC(=N)N)[C@H]1NC(C)=O [GOC, 4-guanidinio oseltamivir carboxylate] .
0.28

---

- System: Flu B Florida/4/2006
- Test details: microbe, parasite or virus in culture
- Assay type: cell-based
- Measurement parameters: unidentified influenza virus; MDCK cells, 3 to 4 days; read-out: 50% effective concentration (EC50)
Readout type: EC50
Put your answer as a value accompanied by its unit after it.

Look up EC50 for this compound: CCC(CC)O[C@@H]1C=C(C(=O)O)C[C@H](NC(=N)N)[C@H]1NC(C)=O [GOC, 4-guanidinio oseltamivir carboxylate]
460 nM

---

- System: Brisbane/10/2007 (H3N2)
- Test details: microbe, parasite or virus in culture
- Type: cell-based
- Measurement parameters: Influenza A virus, H3N2; MDCK cells, 3 to 4 days; read-out: 50% effective concentration (EC50)
Readout type: EC50

What does the record list as EC50 for CCC(CC)O[C@@H]1C=C(C(=O)O)C[C@H](NC(=N)N)[C@H]1NC(C)=O [GOC, 4-guanidinio oseltamivir carboxylate] ?
> 320 nM

---

- Test details: in vivo
- Measurement parameters: mouse, po, 10 mg/kg, T1/2
Readout type: half-life (h)
Give the number; h is assumed, so skip it.

For CCC(CC)O[C@@H]1C=C(C(=O)O)C[C@H](NC(=N)N)[C@H]1NC(C)=O [GOC, 4-guanidinio oseltamivir carboxylate] , what is its reported half-life?
1.21

---

- System: Brisbane/59/2007 (H1N1)
- Test details: microbe, parasite or virus in culture
- Format: cell-based
- Measurement parameters: Influenza A virus, H1N1, MDCK, read-out: 50% effective concentration (EC50)
Readout type: EC50

Record lookup: for Brisbane/59/2007 (H1N1), what EC50 belongs to CCC(CC)O[C@@H]1C=C(C(=O)O)C[C@H](N)[C@H]1NC(C)=O [Oseltamivir Carboxylate, Oseltamivir carboxylate] ?
> 320 nM

---

- Test details: in vivo
- Measurement parameters: mouse, iv, 1 mg/kg
Readout type: clearance
Write the numeric value and follow it with the unit.

Value lookup for clearance; key = CCC(CC)O[C@@H]1C=C(C(=O)O)C[C@H](NC(=N)N)[C@H]1NC(C)=O [GOC, 4-guanidinio oseltamivir carboxylate]
0.883 mL/min

---

- Tested on: NWS/33 (H1N1)
- Test details: microbe, parasite or virus in culture
- Assay type: cell-based
- Measurement parameters: Influenza A virus, H1N1, MDCK, read-out: 50% effective concentration (EC50)
Readout type: EC50 (nM)
Kindly answer with a numeric value in nM, unit omitted.

# get_value(readout='EC50', item= CCC(CC)O[C@@H]1C=C(C(=O)O)C[C@H](N)[C@H]1NC(C)=O [Oseltamivir Carboxylate, Oseltamivir carboxylate] )
580

---

- Test details: in vivo
- Measurement parameters: mouse, po, 10 mg/kg, Tmax, mice, PO (fasted), GOC in plasma
Readout type: Tmax (h)
Report only the number, with the unit h understood.

Would you mind telling me what Tmax value was observed for CCC(CC)O[C@@H]1C=C(C(=O)O)C[C@H](NC(=N)N)[C@H]1NC(C)=O [GOC, 4-guanidinio oseltamivir carboxylate] ?
1.3

---

- Test details: in vivo
- Measurement parameters: mouse, po, 10 mg/kg, AUC
Readout type: AUC (µg·h/mL)
Report only the number, with the unit µg·h/mL understood.

Quick check: AUC of CCC(CC)O[C@@H]1C=C(C(=O)O)C[C@H](NC(=N)N)[C@H]1NC(C)=O [GOC, 4-guanidinio oseltamivir carboxylate] ?
0.232

---

- Test details: in vivo
- Measurement parameters: mouse, iv, 1 mg/kg, AUC, mice, GOC in plasma
Readout type: AUC (ng·h/mL)
State just the number; it will be interpreted in ng·h/mL.

Given CCC(CC)O[C@@H]1C=C(C(=O)O)C[C@H](NC(=N)N)[C@H]1NC(C)=O [GOC, 4-guanidinio oseltamivir carboxylate] , state its recorded AUC.
541
